- TESTED_SYSTEM: HEXA/HEXB (Bos taurus, UniProt Q0V8R6+H7BWW2)
- ASSAY_NOTES: Competitive inhibition of cow HexA/HexB (unknown origin) using pNP-GlcNAc as substrate assessed as inhibition constant by measuring liberation of nitrophenol preincubated with enzyme followed by substrate addition by Dixon plot analysis
- Assay type: protein
ATTRIBUTE_MEASURED: Ki (nM)

Reported Ki (HEXA/HEXB (Bos taurus, UniProt Q0V8R6+H7BWW2)) for entry `CC(=O)N[C@H]1/C(=N/NC(=O)Nc2ccc3ccccc3c2)O[C@H](CO)[C@@H](O)[C@@H]1O` is 47

a: CC(=O)N[C@H]1/C(=N/NC(=S)Nc2ccccc2)O[C@H](CO)[C@@H](O)[C@@H]1O
b: COc1ccc(NC(=O)N/N=C2\O[C@H](CO)[C@@H](O)[C@H](O)[C@H]2NC(C)=O)cc1
Of a and b , whose reported Ki is numerically smaller? // output: label of the selected item
b
